- study-system: CDK9/CycT1 (Homo sapiens, UniProt P50750)
- Construct: Recombinant full-length His-tagged human CDK9 and CycT1; purchased Life Technologies PV4131; host or cells: insect cells
- Sequence (P50750 whole entry): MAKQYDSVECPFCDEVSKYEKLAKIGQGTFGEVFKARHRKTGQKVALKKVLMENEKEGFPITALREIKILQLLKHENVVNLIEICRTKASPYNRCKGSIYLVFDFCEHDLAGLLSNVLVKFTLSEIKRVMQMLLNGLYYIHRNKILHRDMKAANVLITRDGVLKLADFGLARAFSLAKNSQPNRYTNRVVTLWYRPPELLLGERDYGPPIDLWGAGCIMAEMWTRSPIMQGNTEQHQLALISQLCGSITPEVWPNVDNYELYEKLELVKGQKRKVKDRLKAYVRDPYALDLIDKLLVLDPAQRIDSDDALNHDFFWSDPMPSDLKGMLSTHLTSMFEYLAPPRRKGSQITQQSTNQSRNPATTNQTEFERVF
- Sequence (O60563 whole entry partner): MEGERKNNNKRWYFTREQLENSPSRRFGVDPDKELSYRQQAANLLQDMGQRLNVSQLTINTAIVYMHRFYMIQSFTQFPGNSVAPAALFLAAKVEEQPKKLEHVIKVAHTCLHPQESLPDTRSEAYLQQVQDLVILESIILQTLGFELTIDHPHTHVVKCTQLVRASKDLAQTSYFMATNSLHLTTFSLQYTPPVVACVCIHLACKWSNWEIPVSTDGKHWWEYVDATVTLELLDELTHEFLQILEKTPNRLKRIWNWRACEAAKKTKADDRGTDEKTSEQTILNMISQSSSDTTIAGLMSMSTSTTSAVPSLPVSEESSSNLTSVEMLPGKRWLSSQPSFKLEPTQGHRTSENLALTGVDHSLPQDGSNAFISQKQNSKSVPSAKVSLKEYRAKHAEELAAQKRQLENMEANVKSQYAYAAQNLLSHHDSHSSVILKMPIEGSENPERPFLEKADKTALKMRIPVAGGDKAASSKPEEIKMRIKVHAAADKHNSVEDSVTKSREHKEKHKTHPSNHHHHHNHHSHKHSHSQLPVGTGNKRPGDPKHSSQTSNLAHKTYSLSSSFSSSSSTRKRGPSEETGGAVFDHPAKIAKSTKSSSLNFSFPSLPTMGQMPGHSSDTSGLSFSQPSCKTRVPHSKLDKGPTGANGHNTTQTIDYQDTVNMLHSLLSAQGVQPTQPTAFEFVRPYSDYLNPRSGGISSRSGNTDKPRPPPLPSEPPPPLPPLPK
- test-description: CDK9/CycT1 high ATP kinase assay (TR-FRET, 2 mM ATP)
- Type: biochemical
- condition-description: 2 mM ATP (high ATP); median; read-out: CDK9/CyclinT1, 2 mM ATP (high ATP), IC50 (median)
pIC50: −log10 of the molar value.
readout: pIC50

> print(dat)
                                   compound  readout  reported.value
1  Fc1ccc(-c2nnc(CNc3nc(N4CCOCC4)nc4c(Br)cnn34)[nH]2)cc1F [Example 99]    pIC50            6.01
2  CN1CCN(c2nc(NCc3nc4c(F)c(F)ccc4[nH]3)n3ncc(C4CC4(F)F)c3n2)CC1 (centres unmarked) [Example 429]    pIC50          < 4.70

Now turn to the next compound.
Query :: Find the recorded pIC50 belonging to Cc1cnn2c(NCc3nc4c(F)c(F)ccc4[nH]3)nc(N(C)CC(C)(C)O)nc12 [Example 395] and report it.
Result :: < 4.70

###

- study-system: CDK12 (nuclear staining in CAL-120 cells) (Homo sapiens)
- Construct: endogenous in cells; host or cells: CAL-120 human breast cancer cells (DSMZ ACC 459)
- test-description: CDK12 nuclear protein level: immunofluorescence/high content analysis (CAL-120)
- Type: cell-based
- condition-description: CAL-120 cells, 24 h, immunofluorescence; 50% reduction of nuclear CDK12 staining intensity; median; read-out: CDK12 degradation IF, DC50- [mol/l] (median)
readout: DC50 (nM)

a. FC(F)(F)c1cccc(-c2cnc(CNc3nc(N4CCOCC4)nc4c(Br)cnn34)[nH]2)c1
b. OC1CCN(c2nc(NCc3nc4ccccc4[nH]3)n3ncc(Br)c3n2)CC1
Query :: Select one. Lower DC50: a or b Bench note: the answer is the label of the chosen record.
Result :: b

1. CC(C)c1cnn2c(NCc3nc4ccccc4[nH]3)nc(N3CCOCC3)nc12
2. CN1CCN(c2nc(NCc3nc4c(F)c(F)ccc4[nH]3)n3ncc(Cl)c3n2)CC1
Query :: Select one. Lower DC50: 1 or 2 Bench note: the answer is the label of the chosen record.
Result :: 2

###

- study-system: CYCLIN K (nuclear staining in CAL-120 cells) (Homo sapiens)
- Construct: endogenous in cells; host or cells: CAL-120 human breast cancer cells (DSMZ ACC 459)
- Sequence (O75909 whole entry): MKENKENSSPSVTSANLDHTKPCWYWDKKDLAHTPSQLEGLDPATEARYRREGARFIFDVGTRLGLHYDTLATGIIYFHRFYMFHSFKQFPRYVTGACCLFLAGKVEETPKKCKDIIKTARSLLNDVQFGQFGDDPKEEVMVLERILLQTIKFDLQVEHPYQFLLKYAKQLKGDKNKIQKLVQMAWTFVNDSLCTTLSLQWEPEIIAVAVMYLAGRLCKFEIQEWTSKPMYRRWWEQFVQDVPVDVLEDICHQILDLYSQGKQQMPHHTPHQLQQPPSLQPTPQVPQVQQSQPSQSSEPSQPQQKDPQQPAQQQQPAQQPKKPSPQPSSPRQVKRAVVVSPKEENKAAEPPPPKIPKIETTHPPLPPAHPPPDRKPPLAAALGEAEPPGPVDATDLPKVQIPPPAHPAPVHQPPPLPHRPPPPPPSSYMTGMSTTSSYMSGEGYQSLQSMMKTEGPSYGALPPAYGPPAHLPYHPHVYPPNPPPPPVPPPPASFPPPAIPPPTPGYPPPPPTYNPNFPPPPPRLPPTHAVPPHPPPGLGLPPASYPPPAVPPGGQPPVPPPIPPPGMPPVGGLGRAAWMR
- Sequence (Q9NYV4 whole entry partner): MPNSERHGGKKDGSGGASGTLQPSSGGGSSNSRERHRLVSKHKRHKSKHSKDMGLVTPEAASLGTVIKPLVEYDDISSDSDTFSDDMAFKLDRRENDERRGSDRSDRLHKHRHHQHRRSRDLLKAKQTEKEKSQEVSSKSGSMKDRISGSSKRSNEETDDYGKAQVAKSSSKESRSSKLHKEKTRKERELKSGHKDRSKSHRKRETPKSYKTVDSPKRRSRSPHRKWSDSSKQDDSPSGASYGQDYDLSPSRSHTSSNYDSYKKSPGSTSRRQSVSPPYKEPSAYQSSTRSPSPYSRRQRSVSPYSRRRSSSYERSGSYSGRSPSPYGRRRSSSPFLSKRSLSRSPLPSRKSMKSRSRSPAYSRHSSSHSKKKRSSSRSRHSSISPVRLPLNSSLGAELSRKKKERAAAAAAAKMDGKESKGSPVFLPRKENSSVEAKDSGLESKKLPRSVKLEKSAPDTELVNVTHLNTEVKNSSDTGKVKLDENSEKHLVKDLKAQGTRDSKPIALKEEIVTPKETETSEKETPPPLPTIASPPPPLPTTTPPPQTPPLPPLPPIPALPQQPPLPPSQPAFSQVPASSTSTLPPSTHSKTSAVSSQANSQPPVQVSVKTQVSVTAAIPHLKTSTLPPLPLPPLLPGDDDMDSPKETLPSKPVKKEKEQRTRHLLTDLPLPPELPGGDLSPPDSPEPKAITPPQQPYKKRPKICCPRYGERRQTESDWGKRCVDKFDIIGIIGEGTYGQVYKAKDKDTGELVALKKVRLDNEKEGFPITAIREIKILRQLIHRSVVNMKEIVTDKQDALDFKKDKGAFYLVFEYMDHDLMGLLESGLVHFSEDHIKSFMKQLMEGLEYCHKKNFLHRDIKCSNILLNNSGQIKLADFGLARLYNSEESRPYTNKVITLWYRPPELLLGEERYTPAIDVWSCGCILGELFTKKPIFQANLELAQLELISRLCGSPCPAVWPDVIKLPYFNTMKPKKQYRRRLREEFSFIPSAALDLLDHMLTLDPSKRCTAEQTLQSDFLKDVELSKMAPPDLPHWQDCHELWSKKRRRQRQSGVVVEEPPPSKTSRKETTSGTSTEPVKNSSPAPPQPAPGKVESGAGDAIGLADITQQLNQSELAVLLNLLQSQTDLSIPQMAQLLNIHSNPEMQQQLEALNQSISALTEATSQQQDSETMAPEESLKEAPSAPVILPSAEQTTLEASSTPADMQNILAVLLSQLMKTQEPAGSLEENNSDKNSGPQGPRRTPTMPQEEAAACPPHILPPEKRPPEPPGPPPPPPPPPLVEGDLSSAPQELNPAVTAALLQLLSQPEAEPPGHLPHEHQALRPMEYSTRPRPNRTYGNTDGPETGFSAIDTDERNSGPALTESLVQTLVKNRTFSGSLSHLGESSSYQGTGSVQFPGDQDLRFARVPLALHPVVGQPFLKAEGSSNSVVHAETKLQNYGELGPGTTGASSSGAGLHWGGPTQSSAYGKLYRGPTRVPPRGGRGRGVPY
- test-description: CYCLIN K nuclear protein level: immunofluorescence high content analysis (CAL-120)
- Type: cell-based
- condition-description: 24 h, 50% reduction of nuclear CCNK staining intensity, median, read-out: CYCLIN K degradation IF, DC50-[mol/l] (median)
readout: DC50 (nM)

Known DC50 results, listed for orientation:
> print(dat)
                                   compound                              study.system  readout  reported.value
1  CN1CCN(c2nc(NCc3nc4c(F)cccc4[nH]3)n3ncc(C(F)(F)F)c3n2)CC1 [Example 293]  CYCLIN K (nuclear staining in CAL-120 cells) (Homo sapiens)     DC50           0.385
2  COc1ccc2[nH]c(CNc3nc(N4C[C@@H](C)N[C@@H](C)C4)nc4c(Br)cnn34)nc2c1 [Example 205]  CYCLIN K (nuclear staining in CAL-120 cells) (Homo sapiens)     DC50           0.279
3  CC1CN(c2nc(NCc3nc4ccccc4[nH]3)n3ncc(C(C)C)c3n2)CCO1 (racemic) [Example 11]  CYCLIN K (nuclear staining in CAL-120 cells) (Homo sapiens)     DC50            14.5

P. CN1CCN(c2nc(NCc3nc4ccccc4[nH]3)n3ncc(CC(F)(F)F)c3n2)CC1 [Example 436]
Q. Fc1ccc2[nH]c(CNc3nc(N4CCOCC4)nc4c(C5CC5)cnn34)nc2c1F [Example 172]
Query :: Select one. Lower DC50: P or Q Bench note: the answer is the label of the chosen record.
Result :: Q
(Q: 0.894 nM, P: 15.9 nM)

A. Cc1ccc(-c2nnc(CNc3nc(N4CCOCC4)nc4c(Br)cnn34)[nH]2)cc1F [Example 98]
B. Brc1cnn2c(NCc3nnc(-c4ccccc4)[nH]3)nc(N3C[C@H]4C[C@@H]3CO4)nc12 [Example 118]
Query :: Select one. Lower DC50: A or B Bench note: the answer is the label of the chosen record.
Result :: B

###

- System: CAL-120, human breast adenocarcinoma cells
- test-description: Proliferation assay CAL-120 (crystal violet, 4 days)
- Type: cell-based
- condition-description: Homo sapiens, CAL-120, 96 h, CAL-120 cells, median, read-out: Prolif-CAL-120, IC50-[mol/l] (median)
readout: IC50 (nM)

I. C[C@@H]1CN(c2nc(NCc3nc4ccccc4[nH]3)n3ncc(Br)c3n2)C[C@H](C)N1
II. Fc1ccc2[nH]c(CNc3nc(N4CCN5CCC4CC5)nc4c(C(F)(F)F)cnn34)nc2c1F
Query :: Select one. Lower IC50: I or II Bench note: the answer is the label of the chosen record.
Result :: II

###

# key: entry, value: IC50
- study-system: CDK9/CycT1 (Homo sapiens, UniProt P50750)
- Construct: Recombinant full-length His-tagged human CDK9 and CycT1; purchased Life Technologies PV4131; host or cells: insect cells
- test-description: CDK9/CycT1 high ATP kinase assay (TR-FRET, 2 mM ATP)
- Assay type: biochemical
- condition-description: 2 mM ATP (high ATP); median; read-out: CDK9/CyclinT1, 2 mM ATP (high ATP), IC50 (median)

Known IC50 results, listed for orientation:
> print(dat)
                                   compound  readout  reported.value
1  N#Cc1cccc(-c2nnc(CNc3nc(N4CCOCC4)nc4c(Br)cnn34)[nH]2)c1 [Example 55]     IC50        0.718 µM
2  Brc1cnn2c(NCc3nc4ccccc4[nH]3)nc(N3C[C@H]4C[C@@H]3CO4)nc12 [Example 102]     IC50         > 20 µM
3  CN1CCN(c2nc(NCc3nc4c(F)c(Cl)ccc4[nH]3)n3ncc(Br)c3n2)CC1 [Example 373]     IC50         14.4 µM
4  Clc1ccc(-c2cnc(CNc3nc(N4CCOCC4)nc4c(Br)cnn34)[nH]2)cc1 [Example 72]     IC50         6.72 µM

Query :: Give the reported IC50 for COc1ccc2[nH]c(CNc3nc(N4C[C@@H](C)N[C@@H](C)C4)nc4c(Br)cnn34)nc2c1 [Example 205] (system: CDK9/CycT1 (Homo sapiens, UniProt P50750)).
Result :: > 20 µM

Query :: Give the reported IC50 for CN1CCN(c2nc(NCc3nc4c(F)cccc4[nH]3)n3ncc(C(F)(F)F)c3n2)CC1 [Example 293] (system: CDK9/CycT1 (Homo sapiens, UniProt P50750)).
Result :: > 20 µM

Query :: Give the reported IC50 for CN1CCN(c2nc(NCc3nc4c(F)cccc4[nH]3)n3ncc(Cl)c3n2)CC1.O=CO [Example 362] (system: CDK9/CycT1 (Homo sapiens, UniProt P50750)).
Result :: > 20 µM

Query :: Give the reported IC50 for CC1CN(c2nc(NCc3nc4ccccc4[nH]3)n3ncc(C(C)C)c3n2)CCO1 (racemic) [Example 11] (system: CDK9/CycT1 (Homo sapiens, UniProt P50750)).
Result :: > 20 µM

###

- study-system: CYCLIN K (nuclear staining in CAL-120 cells) (Homo sapiens)
- Construct: endogenous in cells; host or cells: CAL-120 human breast cancer cells (DSMZ ACC 459)
- test-description: CYCLIN K nuclear protein level: immunofluorescence high content analysis (CAL-120)
- Assay type: cell-based
- condition-description: 24 h, 50% reduction of nuclear CCNK staining intensity, median, read-out: CYCLIN K degradation IF, DC50-[mol/l] (median)
readout: DC50 (nM)

Known DC50 results, listed for orientation:
> print(dat)
                                   compound                              study.system  readout  reported.value
1  Brc1cnn2c(NCc3nc4ccccc4[nH]3)nc(N3CC4CCC(C3)N4)nc12  CYCLIN K (nuclear staining in CAL-120 cells) (Homo sapiens)     DC50            1.06
2  Fc1cc(F)cc(-c2nnc(CNc3nc(N4CCOCC4)nc4c(Br)cnn34)[nH]2)c1  CYCLIN K (nuclear staining in CAL-120 cells) (Homo sapiens)     DC50           0.676
3  CCN1CCN(c2nc(NCc3nc4ccccc4[nH]3)n3ncc(Br)c3n2)CC1  CYCLIN K (nuclear staining in CAL-120 cells) (Homo sapiens)     DC50            4.68
4  CN(CC(C)(C)O)c1nc(NCc2nc3cc(C(F)(F)F)ccc3[nH]2)n2ncc(Br)c2n1  CYCLIN K (nuclear staining in CAL-120 cells) (Homo sapiens)     DC50           0.698
5  Brc1cnn2c(NCc3nc4ccccc4[nH]3)nc(N3C[C@H]4CNC[C@H]4C3)nc12  CYCLIN K (nuclear staining in CAL-120 cells) (Homo sapiens)     DC50           0.367

a. CC1(C)CN(c2nc(NCc3nnc(-c4ccccc4)[nH]3)n3ncc(Br)c3n2)CCO1
b. CN1CCN(c2nc(NCc3nc4cc(Cl)c(Cl)cc4[nH]3)n3ncc(C4CC4)c3n2)CC1
c. CCC1COCCN1c1nc(NCc2nc3ccccc3[nH]2)n2ncc(Br)c2n1 (stereo not shown)
d. CN1CCN(c2nc(NCc3nc4cc(C(F)(F)F)ccc4[nH]3)n3ncc(Br)c3n2)CC1
Query :: # sort list by recorded DC50, greatest to least Kindly provide the labels arranged according to the requested ordering.
Result :: c, a, b, d
